Please respond with reported CDK2 HIBIT Protein Quantification Maximum for every item in the list.
tested.target: CDK2 (Homo sapiens)
Construct: host or cells: HEK293-CDK2-Hibit
assay.overview: HiBit Assay Protocol for CDK2 (HIBIT protein quantification, degradation)
Assay type: cell-based
assay.context: HEK293-CDK2-Hibit cells, compound treatment for 6 hours
Remember to put the unit after the number in your answer.

Just so you know, measured CDK2 HIBIT Protein Quantification Maximum for CC1CCCC1N1C(=O)C2(CC2)c2cnc(NC3CCN(S(=O)(=O)N4CCCC45CCN(C(=O)CCCCCc4cccc6c4n(C)c(=O)n6C4CCC(=O)NC4=O)C5)CC3)nc21 (stereo not shown) came out at 34%

Just so you know, measured CDK2 HIBIT Protein Quantification Maximum for O=C1CCC(N2Cc3cc(N4CCC(CN5CCN(c6cccc(S(=O)(=O)N7CCC(Nc8ncc9c(n8)N([C@@H]8CCC[C@@H](O)C8)C(=O)C98CC8)CC7)c6)CC5)CC4)ccc3C2=O)C(=O)N1 (stereo partly shown) came out at 70%

Just so you know, measured CDK2 HIBIT Protein Quantification Maximum for CC1CCCC1N1C(=O)C2(CC2)c2cnc(NC3CCN(S(=O)(=O)N4CC(N(C)C(=O)CCCc5ccc6c(c5)n(C)c(=O)n6C5CCC(=O)NC5=O)C4)CC3)nc21 (stereo not shown) came out at 60%

Just so you know, measured CDK2 HIBIT Protein Quantification Maximum for CC1CCCC1N1C(=O)C2(CC2)c2cnc(NC3CCN(S(=O)(=O)C4CCCN(C(=O)CCCCc5ccc6c(c5)n(C)c(=O)n6C5CCC(=O)NC5=O)C4)CC3)nc21 (stereo not shown) came out at 23%

Just so you know, measured CDK2 HIBIT Protein Quantification Maximum for CC(c1cc(S(=O)(=O)N2CC[C@H](Nc3ncc4c(n3)N([C@@H]3CCC[C@@H](O)C3)C(=O)C43CC3)[C@H](F)C2)ccc1F)N1CCC(c2ccc3c(N4CCC(=O)NC4=O)nn(C)c3c2)CC1 (single isomer, unassigned) [Compound 201] came out at 88%

Just so you know, measured CDK2 HIBIT Protein Quantification Maximum for CC1CCCC1N1C(=O)C2(CC2)c2cnc(Nc3ccc(S(=O)(=O)N(C)CCCN4CCC(c5cccc6c5n(C)c(=O)n6C5CCC(=O)NC5=O)CC4)cc3)nc21 (stereo not shown) came out at 78%

Just so you know, measured CDK2 HIBIT Protein Quantification Maximum for Cn1nc(N2CCC(=O)NC2=O)c2ccc(C3CCN(Cc4cccc(S(=O)(=O)N5CCC(Nc6ncc7c(n6)N([C@@H]6CCC[C@@H](O)C6)C(=O)C76CC6)CC5)c4)CC3(F)F)cc21 (stereo partly shown) came out at 81%

Just so you know, measured CDK2 HIBIT Protein Quantification Maximum for CC1CCCC1N1C(=O)C2(CC2)c2cnc(NC3CCN(S(=O)(=O)N4CC5(CCN(C(=O)CCCCc6cccc7c6n(C)c(=O)n7C6CCC(=O)NC6=O)CC5)C4)CC3)nc21 (stereo not shown) came out at 48.4%

Just so you know, measured CDK2 HIBIT Protein Quantification Maximum for CC1CCCC1N1C(=O)C2(CC2)c2cnc(NC3CCN(S(=O)(=O)C4CCN(C(=O)CCCCCCCc5ccc6c(c5)n(C)c(=O)n6C5CCC(=O)NC5=O)C4)CC3)nc21 (stereo not shown) came out at 53%

Just so you know, measured CDK2 HIBIT Protein Quantification Maximum for CC1CCCC1N1C(=O)C2(CC2)c2cnc(NC3CCN(S(=O)(=O)N4CC5CN(C(=O)CCCc6cccc7c6n(C)c(=O)n7C6CCC(=O)NC6=O)CC5C4)CC3)nc21 (stereo not shown) came out at 64%
